- Test system: effects of serotonin (precursor hydroxy-5 tryptophan, 5-HTP)
- ASSAY_NOTES: potentiation of hydroxy-5 tryptophan (5-HTP): generalised trembling or stereotypies in rats
- CONDITIONS: Rattus norvegicus, oral, 1 h before 120 mg/kg i.p. 5-HTP, generalised trembling or stereotypies in 50% of the animals, read-out: Test in vivo ED50
Attribute: ED50
# output: bare number, implied unit mg/kg

The cases that follow already have their ED50 on record.
Given item C[C@@H]1OC(=O)N2c3ccccc3CC[C@@H]12 (relative stereo) , the value recorded as its ED50 is 105

Given item CNC[C@@H]1OC(=O)N2c3ccc(OC)cc3CC[C@@H]12 (relative stereo) , the value recorded as its ED50 is 5.8

Given item O=C1O[C@H](CO)[C@@H]2CCc3ccccc3N12 (relative stereo) , the value recorded as its ED50 is 7.8

Lab note: next compound to report on.
Given item C=C[C@@H]1OC(=O)N2c3ccc(OC)cc3CC[C@@H]12 (relative stereo) , the value recorded as its ED50 is 11

These data points were gathered from patent US5001129A.
